Source listed as patent US6310095A.

Target: protein farnesyltransferase (Rattus norvegicus, UniProt Q02293+Q04631)
Construct: Rat brain protein farnesyltransferase activity is measured; from tissue; host or cells: rat brain; purified according to Reiss et al., Cell 62:81-88 (1990), steps one through three
Assay: in vitro inhibition of protein farnesyltransferase (scintillation proximity assay, biotin-K Ras B fragment)
Assay type: biochemical
Details: at 1 × 10^-6 M; read-out: % inhibition of farnesyltransferase
Where a name gives a salt, the structure may show the parent alone.
Here, each record is paired with measured inhibition at 1 µM data.
Value and unit, in that order.

Take a look at these entries with their results.
compound	test system	endpoint label	endpoint result
CSCC[C@H](NC(=O)c1ccc(CNc2ccccc2F)cc1-c1ccccc1)C(=O)O	protein farnesyltransferase (Rattus norvegicus, UniProt Q02293+Q04631)	inhibition at 1 µM	48%
CSCC[C@H](NC(=O)c1ccc(NC(=O)Cc2ccccc2)cc1-c1ccccc1C)C(=O)O [Example 540, lithium salt]	protein farnesyltransferase (Rattus norvegicus, UniProt Q02293+Q04631)	inhibition at 1 µM	40%
COc1cccc(CNCc2ccc(C(=O)N[C@@H](CCSC)C(=O)O)c(-c3ccccc3)c2)c1	protein farnesyltransferase (Rattus norvegicus, UniProt Q02293+Q04631)	inhibition at 1 µM	41%

Please examine the following record next.
Prompt: Dear colleague, I am looking for the recorded inhibition at 1 µM of the following compound: CCSC[C@H](CC1CCCCC1)NCc1ccc(C(=O)N[C@@H](CCSC)C(=O)OCOC(=O)C(C)(C)C)c(-c2ccccc2C)c1 [Example 764, hydrochloride salt]
Completion: 88%
